Biological target: renin in human plasma (Homo sapiens, UniProt P00797)
Construct: host or cells: recombinant renin of unstated origin added to human plasma from 10 normal donors
Sequence (P00797 67-406): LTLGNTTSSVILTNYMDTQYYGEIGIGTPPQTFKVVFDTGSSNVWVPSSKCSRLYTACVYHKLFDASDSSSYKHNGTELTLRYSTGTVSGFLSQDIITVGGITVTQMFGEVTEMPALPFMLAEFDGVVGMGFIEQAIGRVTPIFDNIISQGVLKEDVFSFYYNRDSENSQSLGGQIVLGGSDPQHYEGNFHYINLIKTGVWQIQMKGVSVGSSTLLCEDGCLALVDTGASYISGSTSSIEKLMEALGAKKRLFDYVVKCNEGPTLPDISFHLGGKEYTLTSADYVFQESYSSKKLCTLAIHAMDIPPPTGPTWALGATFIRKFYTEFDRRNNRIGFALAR
Assay: Inhibition of renin in human plasma (enzymatic in vitro assay, Ang I EIA)
Assay type: biochemical
Settings: human plasma from 10 normal donors, 37° C. 2 h
One threshold, 500 nM, splits the recorded IC50 values: lower ones are Y, equal or higher ones are N.

[[record]]
compound = "COCCCOc1ccccc1-c1ccc(C(CN)Cc2ccc(OCCOc3c(Cl)cc(C)cc3Cl)cc2)c(C)c1 (stereo not drawn)"
group = "N"

[[record]]
compound = "Cc1cc(Cl)c(OCCOc2ccc(CC(CN)c3ccc(-c4ccccc4Cl)cc3C)cc2)c(Cl)c1 (stereo not drawn)"
group = "N"

[[record]]
compound = "COCCCc1ncccc1-c1ccc(C(CN)Cc2ccc(OCCOc3c(Cl)cc(C)cc3Cl)cc2)c(C)c1 (stereo not drawn)"
group = "Y"

[[record]]
compound = "Cc1cc(Cl)c(OCCOc2ccc(CC(CN)c3ccc(-c4ccccc4Cl)cc3Cl)cc2)c(Cl)c1 (stereo not drawn)"
group = "N"

[[record]]
compound = "COCCCc1ccccc1-c1ccc(C(CN)Cc2cc(F)cc(F)c2)c(C)c1 (stereo not drawn)"
group = "N"

[[record]]
compound = "COCCc1ccccc1-c1ccc(C(CN)Cc2ccc(OCCOc3c(Cl)cc(C)cc3Cl)cc2)c(C)c1 (stereo not drawn)"
group = "N"

[[record]]
compound = "COCCCc1ccccc1-c1cc(C(F)(F)F)c(C(CN)Cc2ccc(OCCOc3c(Cl)cc(C)cc3Cl)cc2)cn1 (stereo not drawn)"
group = "Y"

[[record]]
compound = "COCCCc1c(-c2ccc(C(CN)Cc3ccc(OCCOc4c(Cl)cc(C)cc4Cl)cc3)c(C)c2)ccc[n+]1[O-] (stereo not drawn)"
group = "Y"

[[record]]
compound = "Cc1cc(Cl)c(OCCOc2ccc(CC(CN)c3ccc(-c4ccccc4Cl)cc3F)cc2)c(Cl)c1 (stereo not drawn)"
group = "N"

[[record]]
compound = "CC(=O)NCCc1ccccc1-c1ccc(C(CN)Cc2ccc(OCCOc3c(Cl)cc(C)cc3Cl)cc2)c(C)c1 (stereo not drawn)"
group = "Y"

[[record]]
compound = "COCCOc1ccccc1-c1ccc(C(CN)Cc2ccc(OCCOc3c(Cl)cc(C)cc3Cl)cc2)c(C)c1 (stereo not drawn)"
group = "N"

[[record]]
compound = "Cc1cc(Cl)c(OCCOc2ccc(CC(CN)c3ccc(-c4ccccc4CCC(=O)N(C)C)cc3C)cc2)c(Cl)c1 (stereo not drawn)"
group = "N"

[[record]]
compound = "Cc1cc(Cl)c(OCCOc2ccc(CC(CN)c3ccc(-c4ccccc4CCC#N)cc3C)cc2)c(Cl)c1 (stereo not drawn)"
group = "N"

[[record]]
compound = "COc1cc(-c2ccccc2Cl)ccc1C(CN)Cc1ccc(OCCOc2c(Cl)cc(C)cc2Cl)cc1 (stereo not drawn)"
group = "N"

[[record]]
compound = "COCCCc1ccccc1-c1ccc(C(CN)Cc2ccc(OCCOc3c(Cl)cc(C)cc3Cl)cc2)c(C)c1 (stereo not drawn)"
group = "Y"

